Here, each record is paired with measured pKd data.
target: NFIL3 (Homo sapiens, UniProt Q16649); construct: made in house; test: Direct-binding FRET assay; details: 23°C; N-terminal rhodamine design; mean or single; read-out: Kd
Sequence (Q16649 73-136 limits assumed): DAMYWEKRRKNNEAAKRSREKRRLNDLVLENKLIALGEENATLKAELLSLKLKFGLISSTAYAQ
pKd: −log10 of the molar value. Where no end group is shown, it is not given here.

Example entries and their recorded answers appear below.
Sequence Content: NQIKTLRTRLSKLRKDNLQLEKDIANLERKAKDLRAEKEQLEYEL [ATF4-d1]
Attribute Measured: pKd
Result: < 6.00

Sequence Content: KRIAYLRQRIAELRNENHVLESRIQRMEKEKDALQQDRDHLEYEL [ATF5-d1]
Attribute Measured: pKd
Result: < 6.00

With those in mind, consider the next sequence.
Entry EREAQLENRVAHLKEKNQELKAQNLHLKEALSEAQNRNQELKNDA [XBP1-d1] , system NFIL3 (Homo sapiens, UniProt Q16649): what pKd was measured? < 6.00

====

biological target: NFE2L1 (Homo sapiens); test: Direct-binding FRET assay; design: made in house; conditions: Kd, 37°C; C-terminal rhodamine design; mean or single
Sequence (Q14494 654-717 limits assumed): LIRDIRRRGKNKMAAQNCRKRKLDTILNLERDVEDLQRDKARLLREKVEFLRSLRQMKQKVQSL
Where no end group is shown, it is not given here.
Attribute Measured: Kd

Requested field: Kd. Item: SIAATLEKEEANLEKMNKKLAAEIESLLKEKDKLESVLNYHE [JUN-d1] > 5 µM

====

molecular target: MAF (Homo sapiens); test: Direct-binding FRET assay; parameters: made in house; conditions: 37°C; C-terminal fluorescein design as donor, TAMRA target titrated; read-out: Kd
Sequence (O75444 288-351 limits assumed): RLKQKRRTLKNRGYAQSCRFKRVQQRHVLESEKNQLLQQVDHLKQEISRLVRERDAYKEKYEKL
pKd: −log10 of the molar value. Where no end group is shown, it is not given here.
Attribute Measured: pKd

Requested field: pKd. Item: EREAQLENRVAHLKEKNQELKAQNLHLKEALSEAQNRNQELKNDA [XBP1-d1] < 6.00

====

target: ATF4 (Homo sapiens); construct: made in house; assay: Direct-binding FRET assay; settings: 23°C; C-terminal rhodamine design; mean or single; read-out: Kd
Where no end group is shown, it is not given here.
Here, each record is paired with measured pKd data.
pKd here is simply -log10 of the concentration when that concentration is written in mol/L.

Sequence Content: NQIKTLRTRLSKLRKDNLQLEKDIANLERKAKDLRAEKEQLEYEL [ATF4-d1]
pKd: 9.00

Entry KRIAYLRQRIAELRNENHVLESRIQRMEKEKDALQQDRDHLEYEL [ATF5-d1] , system ATF4 (Homo sapiens): what pKd was measured? 9.00

====

Biological target: CREB3L3 (Homo sapiens, UniProt Q68CJ9)
Construct: made in house
Sequence (Q68CJ9 243-306 limits assumed): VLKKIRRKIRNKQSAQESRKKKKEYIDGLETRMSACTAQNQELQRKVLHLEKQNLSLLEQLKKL
Assay: Direct-binding FRET assay
Settings: 37°C; C-terminal fluorescein design as donor, TAMRA target titrated
Where no end group is shown, it is not given here.
Attribute Measured: Kd

Requested field: Kd. Item: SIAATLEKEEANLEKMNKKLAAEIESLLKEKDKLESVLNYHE [JUN-d1] > 1000 nM

====

biological target: MAFF (Homo sapiens, UniProt Q9ULX9); construct: made in house; experiment: Direct-binding FRET assay; settings: 4°C; C-terminal rhodamine design; repeat 1
Sequence (Q9ULX9 51-114 limits assumed): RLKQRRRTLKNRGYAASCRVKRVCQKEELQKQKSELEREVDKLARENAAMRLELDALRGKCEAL
Where no end group is shown, it is not given here.
Attribute Measured: Kd

Requested field: Kd. Item: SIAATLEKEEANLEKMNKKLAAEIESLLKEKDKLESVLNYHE [JUN-d1] > 1000 nM

====

Target: BATF3 (Homo sapiens)
Construct: made in house
Sequence (Q9NR55 35-98 limits assumed): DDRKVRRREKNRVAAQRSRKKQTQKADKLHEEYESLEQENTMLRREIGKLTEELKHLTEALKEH
Experiment: Direct-binding FRET assay
Conditions: Kd, 37°C; C-terminal rhodamine design; mean or single
pKd: −log10 of the molar value. Where no end group is shown, it is not given here.
Attribute Measured: pKd

Requested field: pKd. Item: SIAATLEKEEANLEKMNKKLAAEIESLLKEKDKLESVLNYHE [JUN-d1] < 6.00

====

Here, each record is paired with measured pKd data.
target: ATF2 (Homo sapiens); construct: made in house; experiment: Direct-binding FRET assay; conditions: 23°C; N-terminal rhodamine design; mean or single; read-out: Kd
Sequence (P15336 352-415 limits assumed): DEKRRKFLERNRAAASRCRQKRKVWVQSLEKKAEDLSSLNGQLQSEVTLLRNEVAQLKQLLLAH
pKd: −log10 of the molar value. Where no end group is shown, it is not given here.

Example entries and their recorded answers appear below.
Sequence Content: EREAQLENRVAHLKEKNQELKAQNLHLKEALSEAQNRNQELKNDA [XBP1-d1]
pKd: < 6.00
--
Sequence Content: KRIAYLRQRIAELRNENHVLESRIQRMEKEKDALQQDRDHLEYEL [ATF5-d1]
pKd: < 6.00

With those in mind, consider the next sequence.
Requested field: pKd. Item: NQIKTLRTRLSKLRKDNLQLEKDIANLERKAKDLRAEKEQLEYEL [ATF4-d1] < 6.00

====

target: XBP1 (Homo sapiens); construct: made in house; assay: Direct-binding FRET assay; conditions: 23°C; N-terminal rhodamine design; repeat 1; read-out: Kd
Sequence (P17861 70-133 limits assumed): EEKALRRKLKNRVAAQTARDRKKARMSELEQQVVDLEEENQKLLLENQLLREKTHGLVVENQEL
pKd: −log10 of the molar value. Where no end group is shown, it is not given here.
Attribute Measured: pKd

Requested field: pKd. Item: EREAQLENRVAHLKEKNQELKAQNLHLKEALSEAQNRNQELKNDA [XBP1-d1] < 6.00

====

Target: FOSL1 (Homo sapiens)
Construct: made in house
Sequence (P15407 105-168 limits assumed): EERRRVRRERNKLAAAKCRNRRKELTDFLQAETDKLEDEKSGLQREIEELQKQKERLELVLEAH
Assay: Direct-binding FRET assay
Details: 23°C; C-terminal rhodamine design; mean or single; read-out: Kd
pKd: −log10 of the molar value. Where no end group is shown, it is not given here.
Attribute Measured: pKd

Example entries and their recorded answers appear below.
Sequence Content: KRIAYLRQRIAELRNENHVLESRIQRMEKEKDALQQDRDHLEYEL [ATF5-d1]
Result: 6.16
//
Sequence Content: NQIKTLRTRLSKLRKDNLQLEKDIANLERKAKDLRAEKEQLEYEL [ATF4-d1]
Result: < 6.00

With those in mind, consider the next sequence.
Entry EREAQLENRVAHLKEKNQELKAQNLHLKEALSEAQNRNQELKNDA [XBP1-d1] , system FOSL1 (Homo sapiens): what pKd was measured? < 6.00

====

Biological target: BATF (Homo sapiens, UniProt Q16520)
Construct: made in house
Sequence (Q16520 26-89 limits assumed): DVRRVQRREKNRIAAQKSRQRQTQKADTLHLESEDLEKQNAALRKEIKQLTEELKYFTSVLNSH
Test: Direct-binding FRET assay
Details: Kd, 37°C; C-terminal fluorescein design as donor, TAMRA target titrated
pKd: −log10 of the molar value. Where no end group is shown, it is not given here.
Attribute Measured: pKd

Requested field: pKd. Item: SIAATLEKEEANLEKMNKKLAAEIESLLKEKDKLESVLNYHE [JUN-d1] < 6.00

====

target: HLF (Homo sapiens, UniProt Q16534); construct: made in house; assay: Direct-binding FRET assay; conditions: 23°C; C-terminal fluorescein design as donor, TAMRA target titrated; read-out: Kd
Sequence (Q16534 225-288 limits assumed): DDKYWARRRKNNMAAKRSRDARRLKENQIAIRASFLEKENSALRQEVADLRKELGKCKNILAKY
pKd: −log10 of the molar value. Where no end group is shown, it is not given here.
Here, each record is paired with measured pKd data.

Sequence Content: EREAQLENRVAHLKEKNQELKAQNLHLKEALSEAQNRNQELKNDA [XBP1-d1]
pKd: < 6.00

With those in mind, consider the next sequence.
Requested field: pKd. Item: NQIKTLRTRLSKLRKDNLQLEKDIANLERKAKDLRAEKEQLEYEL [ATF4-d1] < 6.00

====

Target: JUNB (Homo sapiens, UniProt P17275)
Construct: made in house
Sequence (P17275 268-331 limits assumed): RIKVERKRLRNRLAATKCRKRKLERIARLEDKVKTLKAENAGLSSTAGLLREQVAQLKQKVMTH
Test: Direct-binding FRET assay
Conditions: Kd, 4°C; N-terminal rhodamine design; mean or single
Where no end group is shown, it is not given here.
Attribute Measured: Kd

Entry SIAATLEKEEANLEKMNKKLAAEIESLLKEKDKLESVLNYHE [JUN-d1] , system JUNB (Homo sapiens, UniProt P17275): what Kd was measured? 2.7 nM

====

molecular target: ATF4 (Homo sapiens); construct: made in house; test: Direct-binding FRET assay; details: 37°C; N-terminal rhodamine design; mean or single; read-out: Kd
Where no end group is shown, it is not given here.
Attribute Measured: Kd

Entry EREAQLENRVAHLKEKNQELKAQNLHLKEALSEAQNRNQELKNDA [XBP1-d1] , system ATF4 (Homo sapiens): what Kd was measured? > 1 µM

====

Here, each record is paired with measured Kd data.
biological target: ATF4 (Homo sapiens, UniProt P18848); construct: made in house; experiment: Direct-binding FRET assay; conditions: 4°C; N-terminal rhodamine design; repeat 1; read-out: Kd
Sequence (P18848 278-341 limits assumed): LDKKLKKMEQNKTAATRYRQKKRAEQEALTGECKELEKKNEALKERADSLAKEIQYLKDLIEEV
Where no end group is shown, it is not given here.

Sequence Content: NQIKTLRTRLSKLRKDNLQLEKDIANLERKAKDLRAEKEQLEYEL [ATF4-d1]
Target System: ATF4 (Homo sapiens, UniProt P18848)
Kd: > 5 µM

With those in mind, consider the next sequence.
Requested field: Kd. Item: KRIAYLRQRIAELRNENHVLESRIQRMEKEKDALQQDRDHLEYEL [ATF5-d1] > 1 µM
